Molecular target: recombinant guanylate cyclase reporter cell line (Rattus norvegicus, UniProt P19686+P20595)
Construct: expressed in transfected cells
Assay: B-2. Action on recombinant guanylate cyclase reporter cell line
Assay type: cell-based
Conditions: MEC = minimal effective concentration; in some cases mean values from individual determinations
Counter-ions that a name gives are not always drawn.
Reported MEC values for the following compounds.
property_name: MEC

[[record]]
compound = "Cc1nc2c(OCc3c(F)cccc3F)cccn2c1C(=O)NCC(N)CC(F)(F)F (single isomer, unassigned) [Example 126]"
meas_value = "0.30 µM"

[[record]]
compound = "Cc1nc2c(OCc3c(F)cccc3F)cc(Cl)cn2c1C(=O)NCC1(N)CC1"
meas_value = "0.10 µM"

[[record]]
compound = "CCC(C)(N)CNC(=O)c1c(C)nc2c(OCc3c(F)cccc3F)cc(C(F)F)cn12 (single isomer, unassigned; enantiomer a) [Example 288]"
meas_value = "0.3 µM"

[[record]]
compound = "Cc1cc(OCc2c(F)cccc2F)c2nc(C)c(C(=O)NC3CC(C)(C)C3N)n2c1 (mixture of isomers) [Example 358, Formate]"
meas_value = "0.30 µM"

[[record]]
compound = "CCCC(C)(N)CNC(=O)c1c(C)nc2c(OCc3ccccc3Cl)cc(C)cn12 (racemic)"
meas_value = "1.00 µM"

[[record]]
compound = "Cc1nc2c(OCc3c(F)cccc3F)cccn2c1C(=O)NC(C)(C)C(C)(C)N"
meas_value = "3.00 µM"

[[record]]
compound = "CCC(C)(N)CNC(=O)c1c(C)nc2c(OCc3c(F)ccc(F)c3F)cc(C)cn12 (single isomer, unassigned; enantiomer a) [Example 274]"
meas_value = "0.10 µM"

[[record]]
compound = "CCCC(C)(N)CNC(=O)c1c(C)nc2c(OCc3c(F)cccc3F)cccn12 (centres unmarked)"
meas_value = "0.30 µM"

[[record]]
compound = "CCCC[C@H](CNCCOC)NC(=O)c1c(C)nc2c(OCc3c(F)cccc3F)cccn12"
meas_value = "1.00 µM"

[[record]]
compound = "Cc1cc(OCCC(C)C)c2nc(C)c(C(=O)NCC(C)(N)CC(C)C)n2c1 (racemic)"
meas_value = "1.00 µM"

[[record]]
compound = "Cc1cc(OCc2c(F)cccc2F)c2nc(C)c(C(=O)NCC(C)(N)C(F)(F)F)n2c1 (single isomer, unassigned) [Example 240]"
meas_value = "0.30 µM"

[[record]]
compound = "Cc1nc2c(OCc3c(F)cccc3F)cc(Cl)cn2c1C(=O)NC1CNc2ccccc21 (racemic)"
meas_value = "0.30 µM"

[[record]]
compound = "Cc1cc(OCc2c(F)cccc2F)c2nc(C)c(C(=O)NCC(C)(N)Cc3nc4ccccc4s3)n2c1 (racemic)"
meas_value = "0.30 µM"

[[record]]
compound = "Cc1nc2c(OCc3c(F)cccc3F)cc(Cl)cn2c1C(=O)NCCN1C[C@@H](C)O[C@@H](C)C1"
meas_value = "0.30 µM"


---

Target: recombinant guanylate cyclase reporter cell line (Rattus norvegicus, UniProt P19686+P20595)
Construct: expressed in transfected cells
Sequence (P20595 1-619): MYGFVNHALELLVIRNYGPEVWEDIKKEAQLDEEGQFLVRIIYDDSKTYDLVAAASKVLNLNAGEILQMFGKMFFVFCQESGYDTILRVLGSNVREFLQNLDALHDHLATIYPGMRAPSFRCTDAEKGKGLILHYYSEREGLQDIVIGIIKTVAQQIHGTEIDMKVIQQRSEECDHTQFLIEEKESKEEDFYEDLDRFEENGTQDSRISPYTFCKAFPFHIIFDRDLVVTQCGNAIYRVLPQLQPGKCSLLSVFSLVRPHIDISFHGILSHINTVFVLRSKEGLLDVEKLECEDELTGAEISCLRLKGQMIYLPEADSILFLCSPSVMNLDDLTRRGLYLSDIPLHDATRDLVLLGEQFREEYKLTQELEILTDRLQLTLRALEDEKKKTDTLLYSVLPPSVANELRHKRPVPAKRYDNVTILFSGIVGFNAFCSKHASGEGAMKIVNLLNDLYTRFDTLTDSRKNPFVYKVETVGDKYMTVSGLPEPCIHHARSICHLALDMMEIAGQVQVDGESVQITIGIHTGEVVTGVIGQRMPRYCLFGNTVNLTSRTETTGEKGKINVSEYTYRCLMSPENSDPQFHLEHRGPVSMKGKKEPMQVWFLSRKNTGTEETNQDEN
Sequence (P19686 1-690): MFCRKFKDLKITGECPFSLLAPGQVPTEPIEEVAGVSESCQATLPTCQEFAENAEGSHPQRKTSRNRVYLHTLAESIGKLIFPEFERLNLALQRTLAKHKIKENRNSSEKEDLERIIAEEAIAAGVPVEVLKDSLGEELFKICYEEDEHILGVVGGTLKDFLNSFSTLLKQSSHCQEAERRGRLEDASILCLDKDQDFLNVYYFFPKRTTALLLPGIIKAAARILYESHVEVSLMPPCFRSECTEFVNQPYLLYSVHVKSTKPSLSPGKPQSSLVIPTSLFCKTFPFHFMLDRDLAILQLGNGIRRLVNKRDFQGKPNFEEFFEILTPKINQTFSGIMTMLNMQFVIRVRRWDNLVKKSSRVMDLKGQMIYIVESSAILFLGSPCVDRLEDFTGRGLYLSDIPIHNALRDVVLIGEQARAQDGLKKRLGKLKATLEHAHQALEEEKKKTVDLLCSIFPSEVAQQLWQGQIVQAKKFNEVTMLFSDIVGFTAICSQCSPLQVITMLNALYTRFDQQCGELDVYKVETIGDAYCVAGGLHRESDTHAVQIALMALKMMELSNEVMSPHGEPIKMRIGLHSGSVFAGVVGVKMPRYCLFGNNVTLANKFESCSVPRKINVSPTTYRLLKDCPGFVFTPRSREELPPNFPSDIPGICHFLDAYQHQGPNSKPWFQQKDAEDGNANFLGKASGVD
Assay: B-2. Action on recombinant guanylate cyclase reporter cell line
Type: cell-based
Conditions: MEC = minimal effective concentration; in some cases mean values from individual determinations
property_name: MEC (µM)

[[record]]
compound = "CCC(C)(N)CNC(=O)c1c(C)nc2c(OCc3c(F)cccc3F)cc(Cl)cn12 (racemic) [Example 157]"
property_name = "MEC"
meas_value = 0.30

[[record]]
compound = "Cc1nc2c(OCc3c(F)cccc3F)cccn2c1C(=O)NC1CC(C)(C)N(C)C(C)(C)C1"
property_name = "MEC"
meas_value = 0.10

[[record]]
compound = "COCC(C)(N)CNC(=O)c1c(C)nc2c(OCc3c(F)cccc3F)cc(C)cn12 (racemic) [Example 166]"
property_name = "MEC"
meas_value = 0.30

[[record]]
compound = "Cc1nc2c(OCc3c(F)cccc3F)cccn2c1C(=O)NCC(C)(N)CCOCc1ccccc1 (single isomer, unassigned; enantiomer a) [Example 266]"
property_name = "MEC"
meas_value = 0.03

[[record]]
compound = "Cc1cc(OCc2c(F)cccc2F)c2nc(C)c(C(=O)NCCN3C[C@@H](C)O[C@@H](C)C3)n2c1"
property_name = "MEC"
meas_value = 1.00

[[record]]
compound = "Cc1cc(OCc2c(F)cccc2F)c2nc(C)c(C(=O)NC34CCC3CNC4)n2c1 (racemic)"
property_name = "MEC"
meas_value = 1.00

[[record]]
compound = "Cc1nc2c(OCc3c(F)cccc3F)cccn2c1C(=O)NC1CN2CCC1CC2 (stereo not shown)"
property_name = "MEC"
meas_value = 0.30

[[record]]
compound = "Cc1nc2c(OCc3c(F)cccc3F)cccn2c1C(=O)NCC(C)(C)CN"
property_name = "MEC"
meas_value = 3.00

[[record]]
compound = "Cc1nc2c(OCc3c(F)cccc3F)cc(Cl)cn2c1C(=O)NCC(N)CC(F)(F)F (racemic) [Example 147]"
property_name = "MEC"
meas_value = 0.30

[[record]]
compound = "CCCC(C)(N)CNC(=O)c1c(C)nc2c(OCc3c(F)cccc3F)cc(Cl)cn12 (single isomer, unassigned) [Example 246]"
property_name = "MEC"
meas_value = 0.30

[[record]]
compound = "CCCC[C@H](CN(CC)CC)NC(=O)c1c(C)nc2c(OCc3c(F)cccc3F)cccn12"
property_name = "MEC"
meas_value = 1.00

[[record]]
compound = "Cc1nc2c(OCc3c(F)cccc3F)cccn2c1C(=O)NC1CNc2ccccc2C1 (racemic) [Example 75]"
property_name = "MEC"
meas_value = 1.00

[[record]]
compound = "CCCC(C)(N)CNC(=O)c1c(C(F)(F)F)nc2c(OCc3c(F)cccc3F)cc(C)cn12 (stereo not shown)"
property_name = "MEC"
meas_value = 0.10

[[record]]
compound = "Cc1cc(OCc2c(F)cccc2F)c2nc(C)c(C(=O)NC[C@H]3CCCN3)n2c1"
property_name = "MEC"
meas_value = 3.00

[[record]]
compound = "Cc1nc2c(OCc3c(F)cccc3F)cccn2c1C(=O)NCCNC(C)C"
property_name = "MEC"
meas_value = 1.00

[[record]]
compound = "COCC(N)CNC(=O)c1c(C)nc2c(OCc3c(F)cccc3F)cc(C)cn12 (single isomer, unassigned) [Example 242]"
property_name = "MEC"
meas_value = 0.30

[[record]]
compound = "CCOCC(CN)NC(=O)c1c(C)nc2c(OCc3c(F)cccc3F)cccn12 (single isomer, unassigned)"
property_name = "MEC"
meas_value = 1.00

[[record]]
compound = "Cc1cc(OCc2c(F)cccc2F)c2nc(C)c(C(=O)NC3CCC3(C)N)n2c1 (single isomer, unassigned; enantiomer a) [Example 332]"
property_name = "MEC"
meas_value = 1.00

[[record]]
compound = "Cc1nc2c(OCc3c(F)cccc3F)cccn2c1C(=O)N[C@@H](C)CN1CCOCC1"
property_name = "MEC"
meas_value = 1.00

[[record]]
compound = "Cc1cc(OCc2c(F)cccc2F)c2nc(C)c(C(=O)NCC(C)(N)Cc3ccccn3)n2c1 (single isomer, unassigned; enantiomer a) [Example 298]"
property_name = "MEC"
meas_value = 0.10

[[record]]
compound = "Cc1cc(OCc2c(F)cccc2F)c2nc(C)c(C(=O)NCC(C)N3CCOCC3)n2c1 (single isomer, unassigned; ent-8) [Example 187]"
property_name = "MEC"
meas_value = 0.30

[[record]]
compound = "COCC(C)(N)CNC(=O)c1c(C)nc2c(OCc3c(F)cccc3F)cccn12 (single isomer, unassigned) [Example 215]"
property_name = "MEC"
meas_value = 1.00

[[record]]
compound = "COCC(N)CNC(=O)c1c(C)nc2c(OCc3c(F)cccc3F)cc(C)cn12 (single isomer, unassigned) [Example 243]"
property_name = "MEC"
meas_value = 1.00

[[record]]
compound = "Cc1nc2c(OCc3c(F)cccc3F)cccn2c1C(=O)NCC(C)(N)CO (racemic)"
property_name = "MEC"
meas_value = 1.00

[[record]]
compound = "CCCC(C)(N)CNC(=O)c1c(C)nc2c(OCc3c(F)cccc3F)cc(OC)cn12 (single isomer, unassigned; enantiomer b)"
property_name = "MEC"
meas_value = 0.3

[[record]]
compound = "Cc1nc2c(OCc3c(F)cccc3F)cccn2c1C(=O)NCC(C)(N)CCO (single isomer, unassigned; enantiomer a)"
property_name = "MEC"
meas_value = 5.5

[[record]]
compound = "CCOCC(CN)NC(=O)c1c(C)nc2c(OCc3c(F)cccc3F)cc(Cl)cn12 (single isomer, unassigned)"
property_name = "MEC"
meas_value = 0.30

[[record]]
compound = "CCCC(C)(N)CNC(=O)c1c(C)nc2c(OCc3c(F)cccc3F)cc(C(F)F)cn12 (single isomer, unassigned; enantiomer b) [Example 290]"
property_name = "MEC"
meas_value = 0.3

